assayed.target: Tubulin (Sus scrofa, UniProt P02554+P02550)
assay.name: Inhibition of pig brain tubulin polymerization
value.type: IC50 (µM)
# output: bare number, implied unit µM

Here are 3 compounds together with their reported answers.
• COc1ccc(-c2cnnn2-c2cc(OC)c(OC)c(OC)c2)cc1 = 7
• COc1ccc(-c2cnnn2-c2cc(OC)c(OC)c(OC)c2)cc1N = 4.8
• COc1ccc(-c2cnnn2-c2cc(OC)c(OC)c(OC)c2)cc1O = 12.6

Pending compound:
**Query** Item: COc1ccc(-n2nncc2-c2cc(OC)c(OC)c(OC)c2)cc1O Test system: Tubulin (Sus scrofa, UniProt P02554+P02550) Read-out: IC50 Value: ?
**Result** 14

---

System: K562
assay.name: Cytotoxicity against human K562 cells after 5 days by MTT assay
Format: functional, cell-based
condition.details: K562, 120 h
Could you please classify the records by IC50 using these ranges: group 1: < 0.06 µM; group 2: ≥ 0.06 µM and < 0.6 µM; group 3: ≥ 0.6 µM

// below: answered molecules
- COc1ccc(/C=C\c2cc(OC)c(OC)c(OC)c2)cc1O: group 1
- COc1ccc(-c2cnnn2-c2cc(OC)c(OC)c(OC)c2)cc1Br: group 1
- COc1ccc(-c2cnnn2-c2cc(OC)c(OC)c(OC)c2)cc1: group 1
- COc1ccc(-n2nncc2-c2cc(OC)c(OC)c(OC)c2)cc1N: group 2
- COc1ccc(-c2cnnn2-c2cc(OC)c(OC)c(OC)c2)cc1N: group 1
- COc1ccc(-n2nncc2-c2cc(OC)c(OC)c(OC)c2)cc1Br: group 3

**Query** // return the class label for COc1ccc(-n2nncc2-c2cc(OC)c(OC)c(OC)c2)cc1[N+](=O)[O-]
**Result** group 3

**Query** Please classify: COc1ccc(-n2nncc2-c2cc(OC)c(OC)c(OC)c2)cc1
**Result** group 3

**Query** Returns: class label. Input: COc1ccc(-c2cn(-c3cc(OC)c(OC)c(OC)c3)nn2)cc1N
**Result** group 3

**Query** State the band of COc1ccc(-c2cn(-c3cc(OC)c(OC)c(OC)c3)nn2)cc1[N+](=O)[O-]
**Result** group 3

**Query** Band for COc1ccc(-n2nncc2-c2cc(OC)c(OC)c(OC)c2)cc1O ?
**Result** group 2

**Query** Bin this entry: COc1ccc(-c2cnnn2-c2cc(OC)c(OC)c(OC)c2)cc1[N+](=O)[O-]
**Result** group 2

---

assay.name: Cytotoxicity against human WM35 cells assessed as [3H]thymidine incorporation after 72 hrs by microplate scintillation counter
Type: functional, cell-based
Reported IC50 values for the following compounds.
# number only, unit nM dropped from output

* COc1ccc(/C=C\c2cc(OC)c(OC)c(OC)c2)cc1O [COMBRETASTATIN A4] | 2.5

Kindly review the next compound as well.
**Query** Any idea what its IC50 is? The compound is COc1ccc(-c2cnnn2-c2cc(OC)c(OC)c(OC)c2)cc1N
**Result** 3.9

---

assay.name: Cytotoxicity against human SKOV cells assessed as [3H]thymidine incorporation after 72 hrs by microplate scintillation counter
Assay type: functional, cell-based
IC50 listing for selected compounds.
All answers are understood in nM, so give the number only.

- COc1ccc(-c2cnnn2-c2cc(OC)c(OC)c(OC)c2)cc1N: 4.9

Let's switch to this compound now.
**Query** Can you share its IC50? I mean this compound: COc1ccc(/C=C\c2cc(OC)c(OC)c(OC)c2)cc1O [COMBRETASTATIN A4]
**Result** 3.3
